- assay target: glycoprotein B (gB) of HSV-1 strain F on infected Vero cells (Herpes simplex virus type 1, strain F, UniProt P06436 30-903)
- method: cell-based or functional assay
parameter: concentration [nM] required for 100% neutralization of 100 TCID50 (nM)
Numbers only, in nM.

Ask | Give the measured concentration [nM] required for 100% neutralization of 100 TCID50 of humanized mAb h2c-V3 (antibody, V domains shown, also called hu2c-V3) VH: QVTLKESGPALVKPTQTLTLTCTFSGFSLSTSGMSVGWIRQPPGKALEWLAHIWWNNDKYYKPALKSRLTISKDTSKKQVFLTMTNMDPVDTATYYCARIYYGYRPYAMDYWGQGTLVTVSS VL: DIVMTQTPLSLPVTPGEPASISCRSSQSIVHSNGNTYLEWYLQKPGQSPQLLIYKVSNRFSGVPDRFSGSGSGTDFTLKISRVEAEDVGVYYCFQGSHVPWSFGQGTKVEIKR .
Reply | 7.8
